- Tested on: Candida albicans
- Method: Antifungal activity against Candida albicans ATCC 10231 at 10 to 100 mg/ml after 24 hrs by disc diffusion method
- Format: functional
Calls of active or inactive are those of the source. The calls are words filed in the database; no cut-off is given here.
Measured parameter: diameter of the inhibition zone (DIZ)

Solved entries (count: 5):
O=C1C=CC[C@H](c2ccco2)O1 ... inactive
O=C1C=CC[C@H](c2cccs2)O1 ... 7 mm
CC1=CCC(c2cccs2)OC1=O (racemic) ... 12 mm
CC1=CC[C@@H](c2cccs2)OC1=O ... 9 mm
CC1=CC(c2cccs2)OC1=O (racemic) ... 7.5 mm

Value sought for every listed compound: diameter of the inhibition zone (DIZ).
1. O=C1C=CC[C@@H](c2cccs2)O1
2. CC1=C[C@@H](c2cccs2)OC1=O
3. O=C1C=CC[C@@H](c2ccco2)O1
4. O=C1C=CCC(c2cccs2)O1 (racemic)
5. CC1=CC[C@H](c2cccs2)OC1=O
6. O=C1C=C[C@@H](c2cccs2)O1

// result
1: 7 mm; 2: inactive; 3: inactive; 4: 9 mm; 5: 9 mm; 6: inactive

For each of the compounds below, note its diameter of the inhibition zone (DIZ).
1. O=C1C=CC(c2cccs2)O1 (racemic)
2. O=C1C=CCC(c2ccco2)O1 (racemic)

// result
1: 9 mm; 2: inactive

Where these numbers come from: ChEMBL document CHEMBL2069265
